FYI, the data here is from the supplement of paper PMC9112550.

system: Escherichia coli TOP10; assay: shrunken log2 fold change of peptide-encoding DNA abundance (4.5 h post-induction vs induction); higher = less antimicrobial activity (less host growth inhibition); conditions: time post-induction: 4.5 h; library: site-saturation at positions 5, 18, 19, 20
Assign shrunken log2 fold change to each entry below.

INSERT INTO measurements (ordered_residues, observed) VALUES
  ('RRIRWRPPRLPRPRPRPWNWPRP', 0.173),
  ('RRIRQRPPRLPRPRPRPSKCPRP', -0.719),
  ('RRIRSRPPRLPRPRPRPFHIPRP', -1.07),
  ('RRIRERPPRLPRPRPRPTQEPRP', 0.0237),
  ('RRIRFRPPRLPRPRPRPKLYPRP', -0.481);

Go through the items and report each one's shrunken log2 fold change.
1. RRIRPRPPRLPRPRPRPQHFPRP
2. RRIRDRPPRLPRPRPRPGCTPRP
3. RRIRMRPPRLPRPRPRPTGYPRP
4. RRIRLRPPRLPRPRPRPMYAPRP
5. RRIRRRPPRLPRPRPRPWKNPRP
6. RRIRYRPPRLPRPRPRPYNLPRP
7. RRIRRRPPRLPRPRPRPHHPPRP
8. RRIRIRPPRLPRPRPRPFNDPRP

A:
-0.297
0.727
0.0453
-0.248
0.206
0.00739
-0.0853
-0.0749

Go through the items and report each one's shrunken log2 fold change.
1. RRIRQRPPRLPRPRPRPSCSPRP
2. RRIRMRPPRLPRPRPRPCYHPRP

A:
1. -0.111
2. -0.265

* * *

Assign shrunken log2 fold change to each entry below.
tested on: Escherichia coli TOP10; assay: shrunken log2 fold change of peptide-encoding DNA abundance (4.5 h post-induction vs induction); higher = less antimicrobial activity (less host growth inhibition); conditions: time post-induction: 4.5 h; library: site-saturation at positions 5, 18, 19, 20

Worked set:
INSERT INTO results (ordered_residues, observed) VALUES
  ('RRIRPRPPRLPRPRPRPYHPPRP', -0.246),
  ('RRIRYRPPRLPRPRPRPYIHPRP', -1.31),
  ('RRIRSRPPRLPRPRPRPLIQPRP', -0.319),
  ('RRIRCRPPRLPRPRPRPCNEPRP', -0.514),
  ('RRIRVRPPRLPRPRPRPKFCPRP', -0.137),
  ('RRIRYRPPRLPRPRPRPPHYPRP', -0.686),
  ('RRIRTRPPRLPRPRPRPDYIPRP', -0.323);

Now look at this one.
Q: Report shrunken log2 fold change for RRIRHRPPRLPRPRPRPRYNPRP please.
A: -0.591

* * *

tested on: Escherichia coli TOP10; test: shrunken log2 fold change of peptide-encoding DNA abundance (4.5 h post-induction vs induction); higher = less antimicrobial activity (less host growth inhibition); settings: time post-induction: 4.5 h; library: site-saturation at positions 5, 18, 19, 20
observation_type: shrunken log2 fold change

Worked set:
INSERT INTO measurements (ordered_residues, observation_type, observed) VALUES
  ('RRIRDRPPRLPRPRPRPVGVPRP', 'shrunken log2 fold change', 0.189),
  ('RRIRLRPPRLPRPRPRPQWQPRP', 'shrunken log2 fold change', 0.0949),
  ('RRIRVRPPRLPRPRPRPNPFPRP', 'shrunken log2 fold change', -0.104);

Go through the items and report each one's shrunken log2 fold change.
1. RRIRARPPRLPRPRPRPAMSPRP
2. RRIRNRPPRLPRPRPRPDMAPRP
3. RRIRKRPPRLPRPRPRPCLWPRP
4. RRIRERPPRLPRPRPRPHSIPRP
5. RRIRDRPPRLPRPRPRPSPMPRP
6. RRIRFRPPRLPRPRPRPEFVPRP

A:
1. 0.43
2. -0.0639
3. 0.0613
4. -0.0535
5. 0.136
6. 0.0629

Go through the items and report each one's shrunken log2 fold change.
1. RRIRTRPPRLPRPRPRPIREPRP
2. RRIRTRPPRLPRPRPRPTIYPRP
3. RRIRWRPPRLPRPRPRPDERPRP
4. RRIRARPPRLPRPRPRPYVGPRP

A:
1. -0.0125
2. -0.409
3. -0.00133
4. 0.0297

Go through the items and report each one's shrunken log2 fold change.
1. RRIRCRPPRLPRPRPRPQWWPRP
2. RRIRCRPPRLPRPRPRPYENPRP
3. RRIRVRPPRLPRPRPRPLAQPRP

A:
1: 0.433; 2: -0.145; 3: 0.187

Go through the items and report each one's shrunken log2 fold change.
1. RRIRGRPPRLPRPRPRPIMKPRP
2. RRIRCRPPRLPRPRPRPAINPRP
3. RRIRDRPPRLPRPRPRPIYMPRP

A:
1: 0.227; 2: -0.606; 3: -0.106

Go through the items and report each one's shrunken log2 fold change.
1. RRIRKRPPRLPRPRPRPQQPPRP
2. RRIRYRPPRLPRPRPRPIDRPRP
3. RRIRNRPPRLPRPRPRPPEAPRP
4. RRIRTRPPRLPRPRPRPPDEPRP
5. RRIRPRPPRLPRPRPRPELWPRP
6. RRIRPRPPRLPRPRPRPVCSPRP
7. RRIRLRPPRLPRPRPRPHCAPRP
8. RRIRYRPPRLPRPRPRPPAQPRP

A:
1. -0.041
2. -0.017
3. 0.0101
4. 0.0184
5. 0.889
6. -0.168
7. -0.309
8. 0.23

Go through the items and report each one's shrunken log2 fold change.
1. RRIRSRPPRLPRPRPRPSYCPRP
2. RRIRARPPRLPRPRPRPPEHPRP
3. RRIRYRPPRLPRPRPRPVLYPRP
4. RRIRGRPPRLPRPRPRPVVAPRP

A:
1: -1.07; 2: 0.606; 3: -0.0955; 4: 1.19

Q: Report shrunken log2 fold change for RRIRNRPPRLPRPRPRPYDCPRP please.
A: -0.109

* * *

Assign shrunken log2 fold change to each entry below.
system: Escherichia coli TOP10; experiment: shrunken log2 fold change of peptide-encoding DNA abundance (4.5 h post-induction vs induction); higher = less antimicrobial activity (less host growth inhibition); conditions: time post-induction: 4.5 h; library: site-saturation at positions 5, 18, 19, 20
Give bare numbers.

Worked set:
INSERT INTO results (ordered_residues, observed) VALUES
  ('RRIRTRPPRLPRPRPRPKNHPRP', -0.712),
  ('RRIRQRPPRLPRPRPRPYPFPRP', -0.035),
  ('RRIRVRPPRLPRPRPRPQCSPRP', -0.18),
  ('RRIRLRPPRLPRPRPRPNSNPRP', -0.335),
  ('RRIRGRPPRLPRPRPRPFVWPRP', 0.278),
  ('RRIRHRPPRLPRPRPRPTPPPRP', 0.391),
  ('RRIRMRPPRLPRPRPRPSVRPRP', -0.00857),
  ('RRIRERPPRLPRPRPRPQVVPRP', -0.42),
  ('RRIRYRPPRLPRPRPRPIKEPRP', 0.0062),
  ('RRIRERPPRLPRPRPRPIGWPRP', 0.0874);

Go through the items and report each one's shrunken log2 fold change.
1. RRIRARPPRLPRPRPRPLTTPRP
2. RRIRSRPPRLPRPRPRPIPRPRP
3. RRIRTRPPRLPRPRPRPIKNPRP
4. RRIRWRPPRLPRPRPRPNDMPRP
5. RRIRCRPPRLPRPRPRPQSSPRP

A:
1. 0.463
2. 0.202
3. -0.185
4. 0.199
5. -0.103

* * *

test system: Escherichia coli TOP10; experiment: shrunken log2 fold change of peptide-encoding DNA abundance (4.5 h post-induction vs induction); higher = less antimicrobial activity (less host growth inhibition); settings: time post-induction: 4.5 h; library: site-saturation at positions 5, 18, 19, 20;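 further: peptides expressed intracellularly from a pBAD plasmid library in pooled LB shake-flask culture, induced with 0.3% L-arabinose, DNA abundance read by NGS, three biological replicates, DESeq2 with apeglm shrinkage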
Assign shrunken log2 fold change to each entry below.
Give bare numbers.

Worked set:
INSERT INTO measurements (ordered_residues, observation_type, observed) VALUES
  ('RRIRGRPPRLPRPRPRPVFYPRP', 'shrunken log2 fold change', -0.0818),
  ('RRIRIRPPRLPRPRPRPPEPPRP', 'shrunken log2 fold change', 0.105),
  ('RRIRYRPPRLPRPRPRPGRAPRP', 'shrunken log2 fold change', 0.17),
  ('RRIRCRPPRLPRPRPRPDNQPRP', 'shrunken log2 fold change', -0.696);

Go through the items and report each one's shrunken log2 fold change.
1. RRIRNRPPRLPRPRPRPWGLPRP
2. RRIRWRPPRLPRPRPRPHTMPRP
3. RRIRLRPPRLPRPRPRPIFKPRP
4. RRIRYRPPRLPRPRPRPCQIPRP

A:
-0.123
-0.00694
-0.276
-0.00804

Go through the items and report each one's shrunken log2 fold change.
1. RRIRVRPPRLPRPRPRPYLHPRP
2. RRIRTRPPRLPRPRPRPTPYPRP
3. RRIRRRPPRLPRPRPRPWNSPRP
4. RRIRHRPPRLPRPRPRPSDSPRP
5. RRIRHRPPRLPRPRPRPKLAPRP
6. RRIRSRPPRLPRPRPRPIMGPRP
7. RRIRDRPPRLPRPRPRPEYQPRP
8. RRIRIRPPRLPRPRPRPHMNPRP

A:
1: -0.879; 2: -0.298; 3: 0.0625; 4: -0.0454; 5: -0.0576; 6: -0.0258; 7: 0.637; 8: -0.845
